# assay-name: Bimatoprost solubility in formulation vehicles with different solubilizers
# Format: physicochemical
# applied-conditions: formulation vehicle with 1% POE 40 Stearate, aqueous with cosolvent or surfactant or cyclodextrin; vehicle with 1% POE 40 Stearate, 5 °C, measured at 8 weeks
property-label: solubility at 8 weeks
In your response, put the unit directly after the numeric value.

Prompt: solubility at 8 weeks for `CCNC(=O)CCC/C=C\C[C@@H]1[C@@H](/C=C/[C@@H](O)CCc2ccccc2)[C@H](O)C[C@@H]1O` ?
Completion: 1.27 mg/mL

---

# assay-name: Bimatoprost solubility in formulation vehicles with different solubilizers
# Assay type: physicochemical
# applied-conditions: formulation vehicle with 1% POE 40 Stearate, aqueous with cosolvent or surfactant or cyclodextrin; vehicle with 1% POE 40 Stearate, 40 °C, measured at 8 weeks
property-label: solubility at 8 weeks (µg/mL)
Expressed in µg/mL, but write only the number.

Prompt: Recorded solubility at 8 weeks for `CCNC(=O)CCC/C=C\C[C@@H]1[C@@H](/C=C/[C@@H](O)CCc2ccccc2)[C@H](O)C[C@@H]1O` , please?
Completion: 1150
